Data provenance: PubChem BioAssay (NCI)

test system: SK-MEL-28 melanoma; test: NCI tumour cell line growth inhibition, 48 h
Measured TGI, listed per entry for reference.

compound	result
Cc1c(/C=N/NC(=S)N2CCCCC2)c(=O)n(-c2ccccc2)n1C	> 100 µM

Please find the next compound below.
Sure, the documented TGI for C=CCN1CCC(c2cc(C(=O)OCC)[nH]c2-c2cc(C)no2)C1=O (stereo not drawn) is > 100 µM

###

tested on: SF-268 CNS; experiment: NCI tumour cell line growth inhibition, 48 h; in the data active = GI50 below about 0.43 µM; inactive = the rest
Would you mind answering with one of these outcomes? 1 for active, -1 for inactive

# example entries with known answers
molecule	labelClass
COc1cc2cc(Oc3cccc(NC(=O)Nc4cc(C(F)(F)F)cc(C(F)(F)F)c4)c3)c(C)nc2cc1OC	-1
CCc1ccc2c(c1)N(CCO)C1=C(C(=O)OC1)C2c1cc(OC)c(OC)c(OC)c1 (configuration not stated)	1
CCOC(=O)c1c(NC(=O)c2ccc(Cl)cc2)sc2c(CN(C)C)c(O)ccc12	-1
COc1cc(-c2nn(-c3cccc(NC(=O)CCNc4ccc(N5CCOCC5)cc4)c3)cc2-c2ccncc2)ccc1Cl	-1
N#[N+]c1ccc(Nc2ccccc2)cc1	-1

Next, consider the following molecule.
### Prompt Returns: the outcome recorded for Nc1ccccc1C#Cc1ccccc1C#Cc1cccs1 in this assay.
### Response -1
